We begin with a simple list: items and their reported solubility kinetic.
assay: Kinetic aqueous solubility of the compound by UV-HPLC analysis; format: physicochemical; details: buffer; read-out: Kinetic_solubility
Give the quantity in µM, number only.

Example results:
[
  {
    "Structure as smiles": "NCCS(=O)(=O)N1CCC(c2c[nH]c3c(C(N)=O)cc(-c4ccccc4)cc23)CC1",
    "Result value": 33
  },
  {
    "Structure as smiles": "NC(=O)c1cc(-c2ccccc2)cc2c(C3CCS(=O)(=O)CC3)c[nH]c12",
    "Result value": 130
  },
  {
    "Structure as smiles": "NC(=O)c1cc(-c2ccccc2)cc2c(C3CCN(S(=O)(=O)CCCN4CCCC4)CC3)c[nH]c12",
    "Result value": 185
  }
]

Req: solubility kinetic lookup needed for NC(=O)c1cc(-c2ccccc2)cc2c(C3CCN(S(=O)(=O)CCN4CCOCC4)CC3)c[nH]c12 , thanks.
Resp: 41

Req: Thanks! And NC(=O)c1cc(-c2ccccc2)cc2c(C3CCN(S(=O)(=O)CCCN4CCCCCC4)CC3)c[nH]c12 ?
Resp: 93

Req: Note, next up: NC(=O)c1cc(-c2ccccc2)cc2c(C3CCN(S(=O)(=O)CCCN4CCCCC4)CC3)c[nH]c12
Resp: 162

Req: Now the same for NC(=O)c1cc(-c2ccccc2)cc2c(C3CCN(S(=O)(=O)CCCNC4CCCC4)CC3)c[nH]c12
Resp: 85

Req: Record: NC(=O)c1cc(-c2ccccc2)cc2c(C3CCN(S(=O)(=O)CCCN4CCOCC4)CC3)c[nH]c12
Resp: 36

Req: And what about the compound CN(C)CCS(=O)(=O)N1CCC(c2c[nH]c3c(C(N)=O)cc(-c4ccccc4)cc23)CC1 ?
Resp: 8

Req: One more compound: CCN(CC)CCCS(=O)(=O)N1CCC(c2c[nH]c3c(C(N)=O)cc(-c4ccccc4)cc23)CC1
Resp: 173

---

Documented pIC50 across a set of molecules
target: Inhibitor of nuclear factor kappa-B kinase subunit beta (Homo sapiens); experiment: Inhibition of IKKbeta in human CD14-positive monocytes assessed as reduction in LPS-stimulated TNFalpha secretion preincubated for 30 mins followed by LPS stimulation and measured after 24 hrs by Alpha screen assay; assay type: cell-based
Hey, just a heads up that pIC50 is the negative log base 10 of the concentration in molar.

[
  {
    "Molecule": "NC(=O)c1cc(-c2ccccc2)cc2c(C3CCN(S(=O)(=O)CCCN4CCCC4)CC3)c[nH]c12",
    "Experimental readout": "pIC50",
    "Result value": 7.30
  },
  {
    "Molecule": "CCS(=O)(=O)N1CCC(c2c[nH]c3c(C(N)=O)cc(-c4ccccc4)cc23)CC1",
    "Experimental readout": "pIC50",
    "Result value": 6.72
  },
  {
    "Molecule": "CC1(C)CC(c2c[nH]c3c(C(N)=O)cc(-c4ccccc4)cc23)CCS1(=O)=O (stereo not given)",
    "Experimental readout": "pIC50",
    "Result value": 6.96
  },
  {
    "Molecule": "CCN(CC)CCCS(=O)(=O)N1CCC(c2c[nH]c3c(C(N)=O)cc(-c4ccccc4)cc23)CC1",
    "Experimental readout": "pIC50",
    "Result value": 6.72
  }
]

Could you now consider this next molecule?
Req: For the molecule shown here, NCCS(=O)(=O)N1CCC(c2c[nH]c3c(C(N)=O)cc(-c4ccccc4)cc23)CC1 , give the reported pIC50.
Resp: 6.85

---

# IC50 per entry
Target: Inhibitor of nuclear factor kappa-B kinase subunit beta (Homo sapiens, UniProt O14920)
Sequence (O14920 whole entry): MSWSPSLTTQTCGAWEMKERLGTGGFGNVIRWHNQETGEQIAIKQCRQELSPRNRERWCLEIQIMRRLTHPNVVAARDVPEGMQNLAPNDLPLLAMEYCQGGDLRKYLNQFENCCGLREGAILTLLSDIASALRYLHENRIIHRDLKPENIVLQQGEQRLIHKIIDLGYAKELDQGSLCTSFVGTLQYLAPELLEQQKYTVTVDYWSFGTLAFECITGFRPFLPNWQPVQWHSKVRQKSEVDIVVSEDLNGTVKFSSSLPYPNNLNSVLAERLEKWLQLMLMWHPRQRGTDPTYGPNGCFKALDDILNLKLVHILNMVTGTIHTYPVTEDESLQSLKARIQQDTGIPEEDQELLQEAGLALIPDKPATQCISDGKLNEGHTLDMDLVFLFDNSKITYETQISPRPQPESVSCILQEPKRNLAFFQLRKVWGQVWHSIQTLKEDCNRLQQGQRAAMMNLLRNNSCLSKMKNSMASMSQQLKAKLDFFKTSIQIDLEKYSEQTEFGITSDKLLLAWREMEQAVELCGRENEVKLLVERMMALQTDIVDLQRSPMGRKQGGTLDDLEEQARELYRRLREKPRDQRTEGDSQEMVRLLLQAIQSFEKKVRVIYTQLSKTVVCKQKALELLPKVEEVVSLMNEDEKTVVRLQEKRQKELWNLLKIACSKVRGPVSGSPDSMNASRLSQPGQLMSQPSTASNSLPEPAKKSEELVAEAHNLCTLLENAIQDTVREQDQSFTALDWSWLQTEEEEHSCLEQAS
Assay: Inhibition of recombinant human C-terminal GST-tagged IKKbeta (1 to 737 residues) expressed in baculovirus expression system using GST-IkBalpha substrate measured after 30 mins by TR-FRET assay
Enter the number, and then the unit.

The cases that follow already have their IC50 on record.
[
  {
    "Compound": "CC(=O)CCc1c[nH]c2c(C(N)=O)cc(-c3ccccc3)cc12",
    "Experimental target": "Inhibitor of nuclear factor kappa-B kinase subunit beta (Homo sapiens, UniProt O14920)",
    "IC50": "0.126 µM"
  },
  {
    "Compound": "NC(=O)c1cc(-c2ccccc2)cc2c(C3CCC(=O)C3)c[nH]c12 (stereo unspecified)",
    "Experimental target": "Inhibitor of nuclear factor kappa-B kinase subunit beta (Homo sapiens, UniProt O14920)",
    "IC50": "0.0794 µM"
  },
  {
    "Compound": "NC(=O)c1cc(-c2ccccc2)cc2c(C3CCN(S(=O)(=O)CCCN4CCCCCC4)CC3)c[nH]c12",
    "Experimental target": "Inhibitor of nuclear factor kappa-B kinase subunit beta (Homo sapiens, UniProt O14920)",
    "IC50": "0.00631 µM"
  },
  {
    "Compound": "NC(=O)c1cc(-c2ccccc2)cc2c(C3CCN(S(=O)(=O)CCN4CCOCC4)CC3)c[nH]c12",
    "Experimental target": "Inhibitor of nuclear factor kappa-B kinase subunit beta (Homo sapiens, UniProt O14920)",
    "IC50": "0.00794 µM"
  },
  {
    "Compound": "CN1C(=O)CCC1c1c[nH]c2c(C(N)=O)cc(-c3ccccc3)cc12 (stereo unspecified)",
    "Experimental target": "Inhibitor of nuclear factor kappa-B kinase subunit beta (Homo sapiens, UniProt O14920)",
    "IC50": "0.501 µM"
  },
  {
    "Compound": "NC(=O)c1cc(-c2ccccc2)cc2c(C3CCCC(=O)C3)c[nH]c12 (stereo unspecified)",
    "Experimental target": "Inhibitor of nuclear factor kappa-B kinase subunit beta (Homo sapiens, UniProt O14920)",
    "IC50": "0.0794 µM"
  }
]

Req: Need IC50 of NC(=O)c1cc(-c2ccccc2)cc2c(C3CCCS(=O)(=O)C3)c[nH]c12 (stereo unspecified) , thanks.
Resp: 0.158 µM

Req: Cool, now NCCS(=O)(=O)N1CCC(c2c[nH]c3c(C(N)=O)cc(-c4ccccc4)cc23)CC1
Resp: 0.00794 µM

---

experiment: Oral bioavailability in Beagle dog at 2.03 mg/kg; type: ADME, organism-based, Canis lupus familiaris; settings: in vivo
# bioavailability listing for each entry below
Your answer should be a plain number; it is taken to be in %.

[
  {
    "Structure as smiles": "CC1(C)C[C@H](c2c[nH]c3c(C(N)=O)cc(-c4ccc(F)cc4)cc23)CCS1(=O)=O",
    "bioavailability / %": 65.3
  }
]

Req: Consider the compound NC(=O)c1cc(-c2ccccc2)cc2c(C3CCS(=O)(=O)CC3)c[nH]c12 and give its measured bioavailability.
Resp: 52.6

---

experiment: Oral bioavailability in Sprague-Dawley rat at 2 mg/kg; format: ADME, organism-based; details: in vivo
Given measured bioavailability, output label 1 if it is greater than or equal to 90% and label 0 if not.

Solved cases below.
[
  {
    "Compound": "NC(=O)c1cc(-c2ccc(F)cc2)cc2c(C3CCS(=O)(=O)CC3)c[nH]c12",
    "Assigned label": "label 0"
  },
  {
    "Compound": "NC(=O)c1cc(-c2ccccc2)cc2c(C3CCS(=O)(=O)CC3)c[nH]c12",
    "Assigned label": "label 1"
  },
  {
    "Compound": "NCCS(=O)(=O)N1CCC(c2c[nH]c3c(C(N)=O)cc(-c4ccccc4)cc23)CC1",
    "Assigned label": "label 0"
  },
  {
    "Compound": "NC(=O)c1cc(-c2ccccc2)cc2c(C3CCN(S(=O)(=O)CCCN4CCOCC4)CC3)c[nH]c12",
    "Assigned label": "label 0"
  },
  {
    "Compound": "CCS(=O)(=O)N1CCC(c2c[nH]c3c(C(N)=O)cc(-c4ccccc4)cc23)CC1",
    "Assigned label": "label 0"
  },
  {
    "Compound": "NC(=O)c1cc(-c2ccccc2)cc2c(C3CCN(S(=O)(=O)CCCN4CCCC4)CC3)c[nH]c12",
    "Assigned label": "label 0"
  }
]

Req: Would you say CC1(C)C[C@H](c2c[nH]c3c(C(N)=O)cc(-c4ccc(F)cc4)cc23)CCS1(=O)=O shows bioavailability at minimum 90%?
Resp: label 1

Req: What would you report for CC1(C)CC(c2c[nH]c3c(C(N)=O)cc(-c4ccccc4)cc23)CCS1(=O)=O (stereo not drawn) ?
Resp: label 1
